Target: Dihydroorotate dehydrogenase (quinone), mitochondrial (Homo sapiens, UniProt Q02127)
Sequence (Q02127 whole entry): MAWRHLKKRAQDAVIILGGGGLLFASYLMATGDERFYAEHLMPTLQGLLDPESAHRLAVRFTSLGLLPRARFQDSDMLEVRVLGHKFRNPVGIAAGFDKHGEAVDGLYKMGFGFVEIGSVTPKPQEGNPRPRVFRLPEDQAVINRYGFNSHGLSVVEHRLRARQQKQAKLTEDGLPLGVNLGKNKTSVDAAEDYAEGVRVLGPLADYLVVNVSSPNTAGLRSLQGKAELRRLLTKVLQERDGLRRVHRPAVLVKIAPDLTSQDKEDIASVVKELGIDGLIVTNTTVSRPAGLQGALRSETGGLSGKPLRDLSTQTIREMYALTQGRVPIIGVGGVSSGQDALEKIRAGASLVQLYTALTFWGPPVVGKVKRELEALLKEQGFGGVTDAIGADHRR
Metric Name: pIC50
Recall that pIC50 is obtained by taking minus log10 of the concentration measured in molar.

Exercise: Need pIC50, item "Cc1cc(C(=O)O)c2nc(C#Cc3ccccc3)[nH]c2c1"
Key: 4.94
